biological target: Sialic acid-binding Ig-like lectin 9 (Homo sapiens); assay: Hs-Siglec9 ALPHAscreen SOP 20170721; parameters: scale not given: direction of the effect not stated beside the values; conditions: 10 µM
Attribute: Percent Effect

{"MOLECULE": "CNS(=O)(=O)Cc1ccc(CNC(=O)Nc2cn[nH]c2)cc1", "Percent Effect, %": -12.1}
{"MOLECULE": "O=C(Nc1nc2c(s1)CCC2)c1cccnc1N1CCOCC1", "Percent Effect, %": -0.88}
{"MOLECULE": "O=C(c1cccs1)N1CCC(Cn2nc(-c3ccco3)ccc2=O)CC1", "Percent Effect, %": 0.867}
{"MOLECULE": "CCn1ccnc1CN1CCN(CC(=O)NC(=O)NC2CC2)CC1", "Percent Effect, %": 4.6}
{"MOLECULE": "Cc1cc(F)ccc1CN1CCC(O)(CN2CCCCC2)C1 (stereo not given)", "Percent Effect, %": 3.56}
{"MOLECULE": "CNc1cccc(C2CCCN(C(=O)c3ccncc3)C2)n1 (stereo not given)", "Percent Effect, %": 0.305}
{"MOLECULE": "CC[C@@]1(O)CCN(C(=O)c2ccsc2)C[C@H]1O", "Percent Effect, %": -6.46}
{"MOLECULE": "Cc1nc(Nc2ncccn2)cc(C2CCCN2C2CCOCC2)n1 (stereo not given)", "Percent Effect, %": 3.68}
{"MOLECULE": "CCOCC(O)CN1CCN(C(=O)c2ccc(OC)cc2F)CC1 (stereo not given)", "Percent Effect, %": 4.59}
{"MOLECULE": "CCN(CC)C(=O)Nc1cc2c(cc1SC)OCCO2", "Percent Effect, %": 9.01}
{"MOLECULE": "Cc1nn(CC(C)C)c(N(C)C)c1CNCc1cc2ccccc2[nH]1", "Percent Effect, %": 5.12}
{"MOLECULE": "CCc1cc(NCCNc2cccnc2)n2nccc2n1", "Percent Effect, %": 4.15}
{"MOLECULE": "CCCN1C(=O)CC(N2CCN(c3ccc(F)cc3)CC2)C1=O (stereo not given)", "Percent Effect, %": -9.41}
{"MOLECULE": "Cc1nn(C)c2c(=O)n(CC(=O)Nc3cc(Cl)cc(Cl)c3)nnc12", "Percent Effect, %": 1.72}
{"MOLECULE": "O=C(C1CCOCC1)N1C[C@@H]2[C@@H](C1)OCC(=O)N2CC1CC1", "Percent Effect, %": -6.86}
{"MOLECULE": "Cc1ccc(N2CC3(CCN(C(=O)c4ccoc4)C3)C2)nn1", "Percent Effect, %": 11.4}
{"MOLECULE": "COc1ccc(OCc2cc(C(=O)N3CCN[C@H](C)C3)n[nH]2)c(Cl)c1", "Percent Effect, %": -0.0327}
{"MOLECULE": "CCCNC(=O)CNC(=O)CCc1ccccc1Br", "Percent Effect, %": -5.04}
{"MOLECULE": "CCN(CC)CCNC(=O)c1cnc(C(C)(C)C)s1", "Percent Effect, %": -11.2}
{"MOLECULE": "CCN1CCN(C2CCN(Cc3cc(C)on3)CC2)C1=O", "Percent Effect, %": -3.3}
{"MOLECULE": "CN(C)C(=O)c1cccc(NC(=O)N(CCO)Cc2ccsc2)c1", "Percent Effect, %": 7.88}
{"MOLECULE": "Cc1ccc(N2CC3(CCN(c4nccs4)C3)C2)nn1", "Percent Effect, %": 6.68}
{"MOLECULE": "COc1c(C2CCCN2Cc2cc(C)no2)c(C)nn1C (stereo not given)", "Percent Effect, %": -2.24}
{"MOLECULE": "CCCc1n[nH]c(C2CN(CCCOc3ccccc3)CCO2)n1 (stereo not given)", "Percent Effect, %": 1.64}
{"MOLECULE": "Fc1ccc(CN2CCCN(Cc3cscn3)CC2)cc1", "Percent Effect, %": -10.1}
